So I've got a bunch of binders here, and I need their Kd values.
# tested-system: T1, human Proprotein Convertase Subtilisin-like/Kexin type 9 (human, UniProt Q8NBP7 31-692, limits assumed)
# T1 construct: Biotinylated in the ELISAs; unlabelled analyte in BLI and SPR; also called human PCSK9; PCSK9
# T1 sequence (Q8NBP7 31-692 limits assumed): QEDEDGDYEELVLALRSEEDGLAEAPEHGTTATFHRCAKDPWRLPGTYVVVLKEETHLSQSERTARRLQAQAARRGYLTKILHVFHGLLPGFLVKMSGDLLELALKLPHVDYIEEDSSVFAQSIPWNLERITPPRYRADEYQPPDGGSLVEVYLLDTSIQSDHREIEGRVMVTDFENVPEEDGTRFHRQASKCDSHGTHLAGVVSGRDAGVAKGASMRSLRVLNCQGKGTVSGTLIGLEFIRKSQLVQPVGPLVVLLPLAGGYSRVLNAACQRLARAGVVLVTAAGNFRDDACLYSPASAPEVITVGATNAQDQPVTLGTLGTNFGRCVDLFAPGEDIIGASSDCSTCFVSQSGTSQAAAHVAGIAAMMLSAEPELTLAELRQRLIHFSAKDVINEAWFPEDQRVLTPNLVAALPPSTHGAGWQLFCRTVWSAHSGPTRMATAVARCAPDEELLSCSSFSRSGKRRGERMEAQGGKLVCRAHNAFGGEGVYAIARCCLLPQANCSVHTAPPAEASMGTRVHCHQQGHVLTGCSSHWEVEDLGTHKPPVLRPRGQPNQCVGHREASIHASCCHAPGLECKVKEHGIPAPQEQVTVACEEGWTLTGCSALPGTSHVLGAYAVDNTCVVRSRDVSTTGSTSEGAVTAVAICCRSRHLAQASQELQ
# experiment-summary: SPR (ProteOn XPR36), biotinylated antibody on neutravidin chip, human PCSK9 as analyte, 1:1 fit, mean of 4 densities
Numbers only, in nM.

binder: Ab24 (antibody, human IgG1, kappa, N297A, V domains shown, also called antibody Ab24) VH: QSLEESGGDLVKPGASLTLTCKASGFSFSSGYYMCWVRQAPGKGLEWIACIYAGSGGSTFFANWAKGRFTISKTSSTTVTLQMTSLTAADTATYFCARDGGYAGYGYAFFNLWGPGTLVTVSS VL: DVVMTQTPASVSEPVGGTVTIKCQASERIYSGLAWYQQKPGQPPKLLIYGASTLASGVPSRFKGSGSGTDFTLTISDLECDDAAIYYCQATYYGSSYPNVFGGGTEVVVKR
value-type: Kd
u: nM
value-measured: 0.09
--
binder: Ab21 (antibody, human IgG1, kappa, N297A, V domains shown, also called antibody Ab21) VH: QSVEESGGRLVTPGTPLTLTCTVSGFSLSSYAMNWVRQAPGKGLEWIGAIRSSGATFFASWVNGRFTISKTSTTVDLKITSPTPEDTATYFCARDTNDGWYINRLDLWGPGTLVTVSS VL: AAVLTQTPSPVSAAVGGTVSISCQSSKSVYSNYLSWFQQKPGQPPKFLIYKASTLASGVPSRFKGSGSGTQFTLTISDVQCDDAATYYCAGGDTNISDNAFGGGTEVVVKR
value-type: Kd
u: nM
value-measured: 0.61
--
binder: Ab22 (antibody, human IgG1, kappa, N297A, V domains shown, also called antibody Ab22) VH: EVQLVESGGGLVQPGGSLRLSCAASGFSLSSYAMNWVRQAPGKGLEWIGAIRSSGATFFASSVNGRFTISRDNSKNTVYLQMNSLRAEDTAVYYCARDTNDGWYINRLDLWGQGTLVTVSS VL: AVLTQSPSTLSASVGDRVTITCQSSKSVYSNYLSWFQQKPGKAPKFLIYKASTLASGVPSRFSGSGSGTEFTLTISSLQPDDFATYYCAGGDTNIADNAFGGGTKVEIKR
value-type: Kd
u: nM
value-measured: 0.49

Lab note: next binder to report on.
Record summary for Ab23 (antibody, human IgG1, kappa, N297A, V domains shown, also called antibody Ab23) VH: QSLEESGGDLVKPGASLTLTCKASGFSFSSGYYMCWVRQAPGKGLEWIACIYAGSGGSTFFANWAKGRFTISKTSSTTVTLQMTSLTAADTATYFCARDGGYAGYGYAFFNLWGPGTLVTVSS VL: DVVMTQTPASVSEPVGGTVTIKCQASERIYSGLAWYQQKPGQPPKLLIYGASTLASGVPSRFKGSGSGTDFTLTISDLECDDAAIYYCQCTYYGSSYPNVFGGGTEVVVKR : reported Kd = 0.04
